Assay: collision cross section of modified peptide (TIMS, N2, iRT-aligned); higher = larger / more extended gas-phase ion
Conditions: charge state: 3; modification: Hydroxyproline
Listing of entries alongside the reported collision cross section.
Experimental endpoint: collision cross section (Å²)

[
  {
    "Polymer sequence": "PGPQPSAETTR [_P(Hydroxyproline)GPQPSAETTR_]",
    "Experimental endpoint": "collision cross section",
    "Measured value": 412.85
  },
  {
    "Polymer sequence": "KDYQPGITFIVVQK [_KDYQP(Hydroxyproline)GITFIVVQK_]",
    "Experimental endpoint": "collision cross section",
    "Measured value": 502.4
  },
  {
    "Polymer sequence": "DYQPGITFIVVQKR [_DYQP(Hydroxyproline)GITFIVVQKR_]",
    "Experimental endpoint": "collision cross section",
    "Measured value": 517.44
  },
  {
    "Polymer sequence": "VGVEAKQPNSAIR [_VGVEAKQP(Hydroxyproline)NSAIR_]",
    "Experimental endpoint": "collision cross section",
    "Measured value": 482.65
  },
  {
    "Polymer sequence": "GPPGPPGRPGNSGIR [_GPPGPPGRP(Hydroxyproline)GNSGIR_]",
    "Experimental endpoint": "collision cross section",
    "Measured value": 429.49
  },
  {
    "Polymer sequence": "LEKDYQPGITFIVVQK [_LEKDYQP(Hydroxyproline)GITFIVVQK_]",
    "Experimental endpoint": "collision cross section",
    "Measured value": 487.95
  },
  {
    "Polymer sequence": "LGPPGNPGPSGSPGPK [_LGPPGNP(Hydroxyproline)GPSGSPGPK_]",
    "Experimental endpoint": "collision cross section",
    "Measured value": 431.89
  },
  {
    "Polymer sequence": "PGLKGEQGEPGAPGIR [_PGLKGEQGEPGAP(Hydroxyproline)GIR_]",
    "Experimental endpoint": "collision cross section",
    "Measured value": 508.4
  },
  {
    "Polymer sequence": "FPGVGVLPGVPTGAGVK [_FPGVGVLP(Hydroxyproline)GVPTGAGVK_]",
    "Experimental endpoint": "collision cross section",
    "Measured value": 504.05
  },
  {
    "Polymer sequence": "GFPGIQGRK [_GFP(Hydroxyproline)GIQGRK_]",
    "Experimental endpoint": "collision cross section",
    "Measured value": 407.07
  },
  {
    "Polymer sequence": "VQFAPEKPGPQPSAETTR [_VQFAPEKPGP(Hydroxyproline)QPSAETTR_]",
    "Experimental endpoint": "collision cross section",
    "Measured value": 515.21
  },
  {
    "Polymer sequence": "GEAGPTGPQGEPGVRGIR [_GEAGPTGPQGEP(Hydroxyproline)GVRGIR_]",
    "Experimental endpoint": "collision cross section",
    "Measured value": 499.21
  },
  {
    "Polymer sequence": "GGQGPPGPQGPIGYPGPR [_GGQGPPGPQGPIGYP(Hydroxyproline)GPR_]",
    "Experimental endpoint": "collision cross section",
    "Measured value": 474.06
  },
  {
    "Polymer sequence": "GLPGEKGER [_GLP(Hydroxyproline)GEKGER_]",
    "Experimental endpoint": "collision cross section",
    "Measured value": 396.91
  },
  {
    "Polymer sequence": "FPGVGVLPGVPTGAGVKPK [_FPGVGVLPGVPTGAGVKP(Hydroxyproline)K_]",
    "Experimental endpoint": "collision cross section",
    "Measured value": 556.97
  },
  {
    "Polymer sequence": "GDTGLPGPQGIPGGVGSPGR [_GDTGLPGPQGIPGGVGSP(Hydroxyproline)GR_]",
    "Experimental endpoint": "collision cross section",
    "Measured value": 499.06
  },
  {
    "Polymer sequence": "GEKGLPGLAGDHGEFGEK [_GEKGLP(Hydroxyproline)GLAGDHGEFGEK_]",
    "Experimental endpoint": "collision cross section",
    "Measured value": 558.56
  },
  {
    "Polymer sequence": "GERGPPGPPGR [_GERGPPGP(Hydroxyproline)PGR_]",
    "Experimental endpoint": "collision cross section",
    "Measured value": 409.61
  },
  {
    "Polymer sequence": "GERGFPGYPGPK [_GERGFPGYP(Hydroxyproline)GPK_]",
    "Experimental endpoint": "collision cross section",
    "Measured value": 456.01
  },
  {
    "Polymer sequence": "VGYPGPSGPLGARGIPGIK [_VGYP(Hydroxyproline)GPSGPLGARGIPGIK_]",
    "Experimental endpoint": "collision cross section",
    "Measured value": 508.9
  }
]
